- Target desc: Beta-2 adrenergic receptor (Homo sapiens)
- Sequence (P07550 whole entry): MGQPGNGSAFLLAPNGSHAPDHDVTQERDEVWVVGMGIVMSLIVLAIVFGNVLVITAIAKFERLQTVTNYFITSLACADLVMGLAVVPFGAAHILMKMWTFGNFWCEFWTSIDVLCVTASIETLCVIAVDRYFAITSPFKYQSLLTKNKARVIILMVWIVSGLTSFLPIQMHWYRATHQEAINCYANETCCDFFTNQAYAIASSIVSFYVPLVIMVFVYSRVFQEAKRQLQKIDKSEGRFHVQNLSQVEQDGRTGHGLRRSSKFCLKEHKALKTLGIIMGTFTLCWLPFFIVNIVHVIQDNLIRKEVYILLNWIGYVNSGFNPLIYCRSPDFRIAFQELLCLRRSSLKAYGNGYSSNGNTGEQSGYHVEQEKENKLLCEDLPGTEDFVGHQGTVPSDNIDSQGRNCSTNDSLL
- Experiment description: Agonist activity at human beta2 receptor expressed in CHO cells assessed as cAMP accumulation
pEC50: −log10 of the molar value.
Endpoint name: pEC50

O=C(CNC(=O)Nc1cccc(CCCCOCCCCCCNC[C@H](O)c2ccc(O)c(CO)c2)c1)NC1CCCC1 ... 9.50

(1) CC(=O)O.CCNC(=O)Nc1ccc(CCCCOCCCCCCNC[C@H](O)c2ccc(O)c(CO)c2)cc1
(2) CC(=O)O.Cc1cc(CCCCOCCCCCCNC[C@H](O)c2ccc(O)c(CO)c2)cc(NC(N)=O)c1
(3) NC(=O)CNC(=O)Nc1cccc(CCCCOCCCCCCNC[C@H](O)c2ccc(O)c(CO)c2)c1.O=CO
Task item: Highest pEC50 first, then in falling order down to the smallest. Would you mind listing the labels in the order requested?
Reply: 2, 3, 1
(2: 9.80, 3: 9.60, 1: 9.30)

* * *

- Experiment description: Volume of distribution at steady state in Han Wistar rat at 0.25 mg/kg, iv
- Type: ADME, organism-based
- Parameters: dose 0.25 mg/kg, route intravenous
- Condition notes: in vivo, read-out: Vdss
Endpoint name: Vd (L/kg)
Provide only the numeric value, understood in L/kg.

Task item: Quick one: Vd of `CC(=O)O.Cc1cc(CCCCOCCCCCCNC[C@H](O)c2ccc(O)c(CO)c2)cc(NC(N)=O)c1` ?
Reply: 2

* * *

- Tested on: Liver microsomes
- Experiment description: Metabolic stability in human liver microsomes assessed as compound turn over ratio relative to verapamil
- Format: ADME, Microsome
Endpoint name: fold change (FC)

// worked examples, fold change (FC) included
CC(=O)O.CCNC(=O)NCc1cccc(CCCCOCCCCCCNC[C@H](O)c2ccc(O)c(CO)c2)c1 ... 0.72
CC(=O)O.CCNC(=O)Nc1cccc(CCCCOCCCCCCNC[C@H](O)c2ccc(O)c(CO)c2)c1 ... 0.81
CC(=O)O.NC(=O)Nc1cccc(CCCCOCCCCCCNC[C@H](O)c2ccc(O)c(CO)c2)c1 ... 0.97
CC(=O)O.NC(=O)NCc1cccc(CCCCOCCCCCCNC[C@H](O)c2ccc(O)c(CO)c2)c1 ... 1.64
CC(=O)O.NC(=O)Nc1cc(CCCCOCCCCCCNC[C@H](O)c2ccc(O)c(CO)c2)cc(C(F)(F)F)c1 ... 1.34

(I) CC(=O)O.CCNC(=O)Nc1ccc(CCCCOCCCCCCNC[C@H](O)c2ccc(O)c(CO)c2)cc1
(II) CC(=O)O.O=C(Nc1cccc(CCCCOCCCCCCNC[C@H](O)c2ccc(O)c(CO)c2)c1)NC1CCCCC1
Task item: Select one. Lower fold change (FC): I or II Lab log: write the label of the selected item as the result.
Reply: I
(I: 1.37, II: 2.18)

* * *

- Experiment description: Plasma clearance in Han Wistar rat at 0.25 mg/kg, iv
- Type: ADME, organism-based
- Design: dose 0.25 mg/kg, route intravenous
Endpoint name: clearance (mL/min/kg)
Provide only the numeric value, understood in mL/min/kg.

Task item: Quick one: clearance of `CC(=O)O.Cc1cc(CCCCOCCCCCCNC[C@H](O)c2ccc(O)c(CO)c2)cc(NC(N)=O)c1` ?
Reply: 83

* * *

- Target desc: Beta-1 adrenergic receptor (Homo sapiens, UniProt P08588)
- Sequence (P08588 whole entry): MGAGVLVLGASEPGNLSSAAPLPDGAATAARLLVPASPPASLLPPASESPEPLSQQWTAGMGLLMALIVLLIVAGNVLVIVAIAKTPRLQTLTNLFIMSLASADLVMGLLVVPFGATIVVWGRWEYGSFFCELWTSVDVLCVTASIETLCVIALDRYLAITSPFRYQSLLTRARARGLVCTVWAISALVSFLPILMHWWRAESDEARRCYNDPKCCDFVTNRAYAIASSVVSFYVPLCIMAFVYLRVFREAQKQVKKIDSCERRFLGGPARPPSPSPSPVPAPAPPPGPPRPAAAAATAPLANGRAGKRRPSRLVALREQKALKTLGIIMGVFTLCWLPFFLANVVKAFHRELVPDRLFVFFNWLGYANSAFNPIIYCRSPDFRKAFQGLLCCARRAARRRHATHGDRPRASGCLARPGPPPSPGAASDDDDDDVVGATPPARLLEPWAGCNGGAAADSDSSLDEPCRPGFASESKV
- Experiment description: Agonist activity at human beta1 receptor expressed in CHO cells assessed as cAMP accumulation
Endpoint name: EC50 (nM)

// worked examples, EC50 included
NC(=O)CNC(=O)Nc1cccc(CCCCOCCCCCCNC[C@H](O)c2ccc(O)c(CO)c2)c1.O=CO ... 31.6
CC(=O)O.O=C(Nc1cccc(CCCCOCCCCCCNC[C@H](O)c2ccc(O)c(CO)c2)c1)NC1CCCCC1 ... 7.94

(P) CC(=O)O.NC(=O)NCc1cccc(CCCCOCCCCCCNC[C@H](O)c2ccc(O)c(CO)c2)c1
(Q) CC(=O)O.CCNC(=O)Nc1ccc(CCCCOCCCCCCNC[C@H](O)c2ccc(O)c(CO)c2)cc1
Task item: Select one. Lower EC50: P or Q Lab log: write the label of the selected item as the result.
Reply: P

* * *

- Experiment description: Lipophilicity, log D of the compound at pH 6.4
- Format: physicochemical
- Condition notes: buffer
Endpoint name: logD

CC(=O)O.Cc1cc(CCCCOCCCCCCNC[C@H](O)c2ccc(O)c(CO)c2)cc(NC(N)=O)c1 ... 0.2

(A) NC(=O)CNC(=O)Nc1cccc(CCCCOCCCCCCNC[C@H](O)c2ccc(O)c(CO)c2)c1.O=CO
(B) CC(=O)O.CCNC(=O)Nc1cccc(CCCCOCCCCCCNC[C@H](O)c2ccc(O)c(CO)c2)c1
(C) OCc1cc(C(O)CNCCCCCCOCCCCc2ccccc2)ccc1O (stereo not given)
(D) CC(=O)O.NC(=O)Nc1cccc(CCCCOCCCCCCNC[C@H](O)c2ccc(O)c(CO)c2)c1
Task item: Highest logD first, then in falling order down to the smallest. Would you mind listing the labels in the order requested?
Reply: C, B, D, A

* * *

- Target desc: Beta-2 adrenergic receptor (Cavia porcellus)
- Sequence (Q8K4Z4 whole entry): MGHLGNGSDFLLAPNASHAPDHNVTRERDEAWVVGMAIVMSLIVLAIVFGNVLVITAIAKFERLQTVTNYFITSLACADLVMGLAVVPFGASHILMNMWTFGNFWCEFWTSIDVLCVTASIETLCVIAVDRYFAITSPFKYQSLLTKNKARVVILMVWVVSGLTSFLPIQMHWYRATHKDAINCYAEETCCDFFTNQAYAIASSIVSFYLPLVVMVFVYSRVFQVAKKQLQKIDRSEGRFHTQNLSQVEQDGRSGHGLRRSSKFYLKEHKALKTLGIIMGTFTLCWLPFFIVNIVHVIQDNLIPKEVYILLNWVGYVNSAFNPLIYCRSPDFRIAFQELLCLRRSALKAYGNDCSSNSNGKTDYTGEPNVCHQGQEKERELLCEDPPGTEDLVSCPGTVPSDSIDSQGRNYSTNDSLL
- Experiment description: Agonist activity at beta2 adrenergic receptor in guinea pig tracheal strip assessed as inhibition of electrically-induced bronchocontractile response
Endpoint name: EC50 (nM)

CC(=O)O.Cc1cc(CCCCOCCCCCCNC[C@H](O)c2ccc(O)c(CO)c2)cc(NC(N)=O)c1 ... 1.58

(P) CC(=O)O.NC(=O)Nc1cccc(CCCCOCCCCCCNC[C@H](O)c2ccc(O)c(CO)c2)c1
(Q) CC(=O)O.CCNC(=O)Nc1cccc(CCCCOCCCCCCNC[C@H](O)c2ccc(O)c(CO)c2)c1
(R) NC(=O)CNC(=O)Nc1cccc(CCCCOCCCCCCNC[C@H](O)c2ccc(O)c(CO)c2)c1.O=CO
Task item: Highest EC50 first, then in falling order down to the smallest. Would you mind listing the labels in the order requested?
Reply: P, Q, R
(P: 2.51 nM, Q: 1.26 nM, R: 0.251 nM)

* * *

- Experiment description: Oral bioavailability in Beagle dog at 0.25 mg/kg
- Condition notes: in vivo
Endpoint name: bioavailability (%)
Provide only the numeric value, understood in %.

Task item: Quick one: bioavailability of `CC(=O)O.Cc1cc(CCCCOCCCCCCNC[C@H](O)c2ccc(O)c(CO)c2)cc(NC(N)=O)c1` ?
Reply: 6

* * *

- Target desc: Beta-3 adrenergic receptor (Homo sapiens)
- Sequence (P13945 whole entry): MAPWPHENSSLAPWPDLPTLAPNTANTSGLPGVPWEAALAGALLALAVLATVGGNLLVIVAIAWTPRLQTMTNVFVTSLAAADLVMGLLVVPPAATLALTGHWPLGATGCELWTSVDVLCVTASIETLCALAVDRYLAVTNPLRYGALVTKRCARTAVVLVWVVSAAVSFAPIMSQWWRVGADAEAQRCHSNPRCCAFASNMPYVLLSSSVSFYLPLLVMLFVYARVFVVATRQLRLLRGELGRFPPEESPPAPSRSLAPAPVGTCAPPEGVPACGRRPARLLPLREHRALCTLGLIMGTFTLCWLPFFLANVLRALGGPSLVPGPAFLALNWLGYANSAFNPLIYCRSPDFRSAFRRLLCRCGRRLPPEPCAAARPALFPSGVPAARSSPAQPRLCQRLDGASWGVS
- Experiment description: Agonist activity at human beta3 receptor expressed in CHO cells assessed as cAMP accumulation
pEC50: −log10 of the molar value.
Endpoint name: pEC50

// worked examples, pEC50 included
CC(=O)O.Cc1cc(CCCCOCCCCCCNC[C@H](O)c2ccc(O)c(CO)c2)cc(NC(N)=O)c1 ... 7.40
NC(=O)CNC(=O)Nc1cccc(CCCCOCCCCCCNC[C@H](O)c2ccc(O)c(CO)c2)c1.O=CO ... 7.00

(I) CC(=O)O.O=C(Nc1cccc(CCCCOCCCCCCNC[C@H](O)c2ccc(O)c(CO)c2)c1)NC1CCCCC1
(II) CC(=O)O.NC(=O)Nc1cccc(CCCCOCCCCCCNC[C@H](O)c2ccc(O)c(CO)c2)c1
Task item: Would you let me know which has the greater pEC50 value, I or II ? Lab log: write the label of the selected item as the result.
Reply: I

* * *

- Experiment description: Plasma clearance in Beagle dog at 0.05 mg/kg, iv
Endpoint name: clearance (mL/min/kg)
Provide only the numeric value, understood in mL/min/kg.

Task item: Quick one: clearance of `CC(=O)O.Cc1cc(CCCCOCCCCCCNC[C@H](O)c2ccc(O)c(CO)c2)cc(NC(N)=O)c1` ?
Reply: 6

* * *

- Experiment description: Oral bioavailability in dog
- Format: ADME, organism-based, Canis lupus familiaris
- Condition notes: in vivo
Endpoint name: bioavailability (%)
Provide only the numeric value, understood in %.

Task item: Quick one: bioavailability of OCc1cc(C(O)CNCCCCCCOCCCCc2ccccc2)ccc1O (stereo unspecified) ?
Reply: 66

* * *

- Target desc: Beta-1 adrenergic receptor (Homo sapiens)
- Experiment description: Agonist activity at human beta1 receptor expressed in CHO cells assessed as cAMP accumulation
pEC50: −log10 of the molar value.
Endpoint name: pEC50

// worked examples, pEC50 included
CC(=O)O.CCNC(=O)NCc1cccc(CCCCOCCCCCCNC[C@H](O)c2ccc(O)c(CO)c2)c1 ... 7.50
CC(=O)O.NC(=O)Nc1cc(CCCCOCCCCCCNC[C@H](O)c2ccc(O)c(CO)c2)cc(C(F)(F)F)c1 ... 7.30
CC(=O)O.CCNC(=O)Nc1cccc(CCCCOCCCCCCNC[C@H](O)c2ccc(O)c(CO)c2)c1 ... 7.50
CC(=O)O.Cc1cc(CCCCOCCCCCCNC[C@H](O)c2ccc(O)c(CO)c2)cc(NC(N)=O)c1 ... 7.40

(a) O=C(CNC(=O)Nc1cccc(CCCCOCCCCCCNC[C@H](O)c2ccc(O)c(CO)c2)c1)NC1CCCC1
(b) CC(=O)O.NC(=O)Nc1cccc(CCCCOCCCCCCNC[C@H](O)c2ccc(O)c(CO)c2)c1
Task item: Select one. Lower pEC50: a or b Lab log: write the label of the selected item as the result.
Reply: b
(b: 7.20, a: 8.00)
